Target: T1, RXFP1 receptor (endogenous, on OVCAR5 cells) (UniProt Q9HBX9 1-757, limits assumed)
T1 sequence (looked up): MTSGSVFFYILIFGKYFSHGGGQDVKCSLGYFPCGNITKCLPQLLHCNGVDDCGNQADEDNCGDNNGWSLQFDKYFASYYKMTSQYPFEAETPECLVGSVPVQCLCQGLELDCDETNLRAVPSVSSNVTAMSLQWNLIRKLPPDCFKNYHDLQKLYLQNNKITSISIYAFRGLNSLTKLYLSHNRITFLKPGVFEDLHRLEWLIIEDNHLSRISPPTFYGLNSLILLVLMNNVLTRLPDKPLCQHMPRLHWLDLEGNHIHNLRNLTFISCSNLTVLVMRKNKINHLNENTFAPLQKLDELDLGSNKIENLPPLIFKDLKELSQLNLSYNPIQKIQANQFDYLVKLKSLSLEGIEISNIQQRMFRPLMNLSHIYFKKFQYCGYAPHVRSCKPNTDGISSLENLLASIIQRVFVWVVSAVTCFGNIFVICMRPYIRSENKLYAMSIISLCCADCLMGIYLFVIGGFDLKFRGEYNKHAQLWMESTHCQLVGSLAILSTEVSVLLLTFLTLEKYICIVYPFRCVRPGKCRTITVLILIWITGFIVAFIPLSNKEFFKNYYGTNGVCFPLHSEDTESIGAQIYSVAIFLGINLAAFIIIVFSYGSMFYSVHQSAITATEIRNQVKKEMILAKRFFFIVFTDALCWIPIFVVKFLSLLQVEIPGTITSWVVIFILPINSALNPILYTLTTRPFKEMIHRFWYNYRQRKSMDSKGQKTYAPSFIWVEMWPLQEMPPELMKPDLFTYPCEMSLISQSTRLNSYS
Test: cell-based or functional assay
Starred links: 1 amine or outer side, 2 acyl side, 3 side chain; linkers in the order of their positions; H or OH if unused. Non-standard residues stand in square brackets, D forms with d. Groups on a side chain read outwards from the residue. *: point of attachment. TTDS = 4-[3-[2-[2-(3-aminopropoxy)ethoxy]ethoxy]propylamino]-4-oxo-butanoyl; Phe(4-F) = N[C@@H](Cc1ccc(F)cc1)C(=O)O; γGlu = O=C(O)[C@H](CCC(=O)[*:2])N[*:1]; Palmitoyl = CCCCCCCCCCCCCCCC(=O)*; αMeK = C[C@](N)(CCCCN)C(=O)O; hLys = NCCCCC[C@H](N)C(=O)O; Aib = CC(C)(N)C(=O)O
Recorded Endpoint: EC50 (nM), OVCAR 5 cells (cAMP)

Ac-LEGRERVRAK(Ac)I[Aib][Aib]EGK([TTDS-TTDS-TTDS-γGlu-γGlu-γGlu-Palmitoyl])ST[Phe(4-F)]S[Aib]RRK(Ac)-NH2 [peptide of SEQ ID NO: 91]; 0.09
Ac-LEGREKVRAK(Ac)I[Aib][Aib]EGK([TTDS-TTDS-γGlu-γGlu-γGlu-Palmitoyl])STFS[dK]RAK(Ac)-NH2 [peptide of SEQ ID NO: 16]; 6.8
Ac-LEGRE[hLys]VRAK(Ac)I[Aib][Aib]EGK([TTDS-TTDS-TTDS-γGlu-γGlu-γGlu-Palmitoyl])STFS[αMeK]RAK(Ac)-NH2 [peptide of SEQ ID NO: 28]; 0.62
Ac-LEGRERVRAK(Ac)I[Aib][Aib]EGK([TTDS-TTDS-TTDS-γGlu-γGlu-γGlu-Palmitoyl])STWS[Aib]RRK(Ac)-NH2 [peptide of SEQ ID NO: 31]; 0.19
Ac-LEGREKVRAK(Ac)I[Aib][Aib]EGK([TTDS-TTDS-TTDS-TTDS-γGlu-γGlu-γGlu-Palmitoyl])STFS[αMeK]RAK(Ac)-NH2 [peptide of SEQ ID NO: 78]; 0.18
Ac-LEGRELVRAK(Ac)I[Aib][Aib]EGK([TTDS-TTDS-TTDS-γGlu-γGlu-γGlu-Palmitoyl])STWS[Aib]RRK(Ac)-NH2 [peptide of SEQ ID NO: 37]; 5.6
Ac-LEGREKVRAK(Ac)I[Aib][Aib]EGK([TTDS-TTDS-TTDS-γGlu-γGlu-γGlu-Palmitoyl])STFS[hLys]RAK(Ac)-NH2 [peptide of SEQ ID NO: 88]; 0.17
Ac-LEGREFVRAK(Ac)I[Aib][Aib]EGK([TTDS-TTDS-TTDS-γGlu-γGlu-γGlu-Palmitoyl])STFS[αMeK]RAK(Ac)-NH2 [peptide of SEQ ID NO: 24]; 36.4
Ac-LEGREKVRAK(Ac)I[Aib][Aib]EGK([TTDS-TTDS-γGlu-γGlu-γGlu-Palmitoyl])STWS[dK]RKK(Ac)-NH2 [peptide of SEQ ID NO: 18]; 1.54
